Tested on: Plasmodium berghei
Experiment: Screen against P. berghei liver stage (PbLuc), transformed with Luciferase, at 10uM
Assay type: functional, HepG2
Settings: tested at 10 uM
About 8,600 (12%) of roughly 69,000 compounds showed an effect of 50% or more. This excerpt belongs to a sample that is enriched for strong results.
OBSERVED PROPERTY: INHIBITION (%)
Quick note: give the figure in %, leave out the unit.

Check out these entries, answers already filled in.
| MOLECULE | INHIBITION [%] |
| --- | --- |
| Cc1ccc(-c2nn(-c3cccc(F)c3)cc2CN(CCO)CCO)o1 | 27.4 |
| c1csc(CN2CCC3(COCCN(CC4CC4)C3)C2)n1 (configuration not stated) | -23.3 |

Task: // INHIBITION lookup, key: `Cc1cc2ccccc2n1CCC(=O)NCCS(C)(=O)=O`
Output: 0.426

Task: Entry to check: `Cc1ccc(-c2nn(-c3cccc(F)c3)cc2CN(C)CCO)o1`
Output: 65.7

Task: Entry to check: `Cc1ccsc1CNCCCOc1ccccn1`
Output: -19.1

Task: Entry to check: CN1CCCC1CNC(=O)CCCOc1ccc(I)cc1 (configuration not stated)
Output: 18.625

Task: Entry to check: `COc1ccc2c(OCC(=O)NCC(F)(F)F)ccnc2c1`
Output: -121

Task: Entry to check: CCOCC1CN(C(=O)Cc2ccccn2)Cc2cnn(CC)c21 (configuration not stated)
Output: 54.4

Task: Entry to check: Fc1cccc(CN2CCOC3(COCCN(CC4CC4)C3)C2)c1 (configuration not stated)
Output: 81

Task: Entry to check: `O=C(c1ccco1)N1CC[C@H]2C[C@@H](c3nccs3)O[C@@H]2C1`
Output: -7.59

Task: Entry to check: c1cc(CN2CCOCC3(C2)CN(Cc2nccs2)CCO3)ccn1 (configuration not stated)
Output: 34.4

Task: Entry to check: `O=C(C1CCCCC1)N1CCC2(CC1)CNCc1ccccc12`
Output: 61.5

Task: Entry to check: `CS(=O)(=O)N[C@@H]1CCN(Cc2cccs2)[C@H]1Cc1cccnc1`
Output: -21.4

Task: Entry to check: COc1ccc(C(O)CNC(=O)NCCc2csc(C)n2)cc1 (configuration not stated)
Output: 44.1

Task: Entry to check: CC(C)CCN1CCNC(=O)C1CC(=O)NCCc1cc(O)ncn1 (configuration not stated)
Output: 12.8

The reported measurements were obtained from ChEMBL document CHEMBL4513216.
